Items are presented alongside their recorded EC50.
- Tested on: MCF7
- assay: Cytotoxic activity against human breast cancer (MCF-7) cell line
- Assay type: functional
- particulars: read-out: ED50 (the source's name)
Unit µg/mL implied. Number only.

Below: 3 molecules and their reported EC50.
[ask] May I ask what EC50 has been recorded for Cc1cc(S)nc2c3c(ccc12)OC(C)(C)C=C3 ?
[reply] 13.8

[ask] Try this molecule next: Cc1c(O)nc2c3c(ccc2c1C)OC(C)(C)C=C3
[reply] 19

[ask] Try this molecule next: CC1(C)C=Cc2c(ccc3ccc(O)nc23)O1
[reply] 14.7

With those in mind, consider the next molecule.
[ask] May I ask what EC50 has been recorded for CC1(C)C=Cc2c(ccc3c(-c4ccccc4)cc(O)nc23)O1 ?
[reply] 30

----------
Items are presented alongside their recorded EC50.
- Tested on: A549
- assay: Cytotoxic activity against human lung carcinoma (A-549) cell line
- Assay type: functional
- particulars: read-out: ED50 (the source's name)

Below: 3 compounds and their reported EC50.
[ask] May I ask what EC50 has been recorded for CCCc1cc(O)nc2c3c(ccc12)OC(C)(C)C=C3 ?
[reply] > 40 µg/mL

[ask] Try this compound next: Cc1cc(S)nc2c3c(ccc12)OC(C)(C)C=C3
[reply] 30.3 µg/mL

[ask] Try this compound next: Cc1cc(O)nc2c3c(ccc12)OC(C)(C)C=C3
[reply] 2.2 µg/mL

***
[ask] May I ask what EC50 has been recorded for CC1(C)C=Cc2c(ccc3ccc(O)nc23)O1 ?
[reply] 18 µg/mL

----------
- Tested on: HCT-8
- assay: Cytotoxic activity against human ileocecal carcinoma (HCT-8) cell line
- Assay type: functional
- particulars: read-out: ED50 (the source's name)
quantityMeasured: EC50 (µg/mL)
Unit µg/mL implied. Number only.

Below: 2 compounds and their reported EC50.
[ask] May I ask what EC50 has been recorded for Cc1cc(O)nc2c3c(ccc12)OC(C)(C)C=C3 ?
[reply] 1.7

[ask] Try this compound next: Cc1cc(=O)n(C(=O)OC(C)(C)C)c2c3c(ccc12)OC(C)(C)C=C3
[reply] 3.6

***
[ask] May I ask what EC50 has been recorded for Cc1c(O)nc2c3c(ccc2c1C)OC(C)(C)C=C3 ?
[reply] 32

[ask] Try this compound next: Cc1cc(S)nc2c3c(ccc12)OC(C)(C)C=C3
[reply] 28.8

[ask] Try this compound next: Cc1cc2c(C)c(C)c(O)nc2c2c1OC(C)(C)C=C2
[reply] 41

[ask] Try this compound next: CC1(C)C=Cc2c(ccc3ccc(O)nc23)O1
[reply] 19.3

[ask] Try this compound next: CC1(C)C=Cc2c(ccc3c(-c4ccccc4)cc(O)nc23)O1
[reply] 28

----------
- Test system: MCF7
- assay: Cytotoxic activity against human breast cancer (MCF-7) cell line
- Format: functional
- particulars: read-out: ED50 (the source's name)
Items are presented alongside their recorded EC50.
Unit µg/mL implied. Number only.

Below: 2 compounds and their reported EC50.
[ask] For MCF7, provide EC50 of Cc1cc(=O)n(C(=O)OC(C)(C)C)c2c3c(ccc12)OC(C)(C)C=C3 please.
[reply] 2.4

[ask] Try this compound next: Cc1cc2c(C)c(C)c(O)nc2c2c1OC(C)(C)C=C2
[reply] 38

***
[ask] For MCF7, provide EC50 of Cc1cc(O)nc2c3c(ccc12)OC(C)(C)C=C3 please.
[reply] 1.7

----------
- System: A549
- assay: Cytotoxic activity against human lung carcinoma (A-549) cell line
- Format: functional
- particulars: read-out: ED50 (the source's name)
quantityMeasured: EC50 (µg/mL)
Unit µg/mL implied. Number only.

[ask] May I ask what EC50 has been recorded for Cc1cc2c(C)c(C)c(O)nc2c2c1OC(C)(C)C=C2 ?
[reply] 41

***
[ask] May I ask what EC50 has been recorded for Cc1c(O)nc2c3c(ccc2c1C)OC(C)(C)C=C3 ?
[reply] 25

[ask] Try this molecule next: Cc1cc(=O)n(C(=O)OC(C)(C)C)c2c3c(ccc12)OC(C)(C)C=C3
[reply] 4.3

[ask] Try this molecule next: CC1(C)C=Cc2c(ccc3c(-c4ccccc4)cc(O)nc23)O1
[reply] 36.3
